Biological target: Histone-lysine N-methyltransferase EHMT2 (Homo sapiens, UniProt Q96KQ7)
Sequence (Q96KQ7 whole entry): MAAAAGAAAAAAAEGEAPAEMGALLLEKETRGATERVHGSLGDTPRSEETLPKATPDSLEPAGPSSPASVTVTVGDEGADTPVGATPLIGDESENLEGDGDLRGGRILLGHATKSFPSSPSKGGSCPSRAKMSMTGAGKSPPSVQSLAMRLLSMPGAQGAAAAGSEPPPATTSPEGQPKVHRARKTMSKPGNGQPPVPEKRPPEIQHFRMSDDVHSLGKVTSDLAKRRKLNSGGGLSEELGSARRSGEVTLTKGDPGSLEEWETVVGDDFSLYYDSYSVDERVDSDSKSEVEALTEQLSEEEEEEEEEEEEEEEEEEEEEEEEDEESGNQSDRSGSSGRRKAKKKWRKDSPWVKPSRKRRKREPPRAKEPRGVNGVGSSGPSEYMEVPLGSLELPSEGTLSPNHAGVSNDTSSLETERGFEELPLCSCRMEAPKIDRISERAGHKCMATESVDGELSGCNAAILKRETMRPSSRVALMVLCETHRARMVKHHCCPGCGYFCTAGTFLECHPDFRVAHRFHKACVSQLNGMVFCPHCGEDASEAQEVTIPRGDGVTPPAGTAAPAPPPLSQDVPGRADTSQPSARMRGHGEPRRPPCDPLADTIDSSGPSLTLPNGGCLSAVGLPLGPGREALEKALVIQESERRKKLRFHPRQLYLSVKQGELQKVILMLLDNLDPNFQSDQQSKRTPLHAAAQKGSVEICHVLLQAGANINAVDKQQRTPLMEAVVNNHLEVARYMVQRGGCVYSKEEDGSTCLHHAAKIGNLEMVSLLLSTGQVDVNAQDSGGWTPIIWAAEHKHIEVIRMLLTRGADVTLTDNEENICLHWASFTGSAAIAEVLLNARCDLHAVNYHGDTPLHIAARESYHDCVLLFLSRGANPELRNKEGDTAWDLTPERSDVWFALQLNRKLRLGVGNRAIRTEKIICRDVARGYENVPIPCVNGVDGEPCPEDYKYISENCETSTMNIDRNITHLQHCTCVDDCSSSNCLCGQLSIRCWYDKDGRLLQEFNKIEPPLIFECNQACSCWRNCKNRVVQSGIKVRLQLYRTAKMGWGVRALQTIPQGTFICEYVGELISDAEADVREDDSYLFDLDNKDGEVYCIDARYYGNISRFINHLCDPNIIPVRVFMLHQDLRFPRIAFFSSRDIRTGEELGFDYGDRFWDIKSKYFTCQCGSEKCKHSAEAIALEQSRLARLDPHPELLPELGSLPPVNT
Test: Inhibition of recombinant G9a catalytic SET domain (913 to 1193 residues) (unknown origin) expressed in Escherichia coli BL21 (DE3) codon plus RIL assessed as inhibition of methylation activity using biotin-labeled H3 (1 to 25 residues) as substrate and [3H]-SAM after 2 hrs by scintillation proximity assay
Listed here: items and their measured IC50.
Property: IC50

> print(dat)
                                chem.smiles  property  value.observed
1  CCOc1cc2c(NC3CCN(C)CC3)nc(N3CCOCC3)nc2cc1OC      IC50          > 5 µM
2  COc1cc2c(NC3CCN(C)CC3)nc(N3CCOCC3)nc2cc1OC(C)C      IC50          > 5 µM
3  COc1cc2nc(N3CCOCC3)nc(NC3CCN(C)CC3)c2cc1C      IC50         4.07 µM
